Tested System: T1, soluble human GPNMB (recombinant extracellular domain) (human, UniProt Q14956 23-498)
T1 construct: also called huGPNMB; recombinant human GPNMB extracellular domain; not shown: C-terminal polyhistidine or Avi-His tag
T1 sequence: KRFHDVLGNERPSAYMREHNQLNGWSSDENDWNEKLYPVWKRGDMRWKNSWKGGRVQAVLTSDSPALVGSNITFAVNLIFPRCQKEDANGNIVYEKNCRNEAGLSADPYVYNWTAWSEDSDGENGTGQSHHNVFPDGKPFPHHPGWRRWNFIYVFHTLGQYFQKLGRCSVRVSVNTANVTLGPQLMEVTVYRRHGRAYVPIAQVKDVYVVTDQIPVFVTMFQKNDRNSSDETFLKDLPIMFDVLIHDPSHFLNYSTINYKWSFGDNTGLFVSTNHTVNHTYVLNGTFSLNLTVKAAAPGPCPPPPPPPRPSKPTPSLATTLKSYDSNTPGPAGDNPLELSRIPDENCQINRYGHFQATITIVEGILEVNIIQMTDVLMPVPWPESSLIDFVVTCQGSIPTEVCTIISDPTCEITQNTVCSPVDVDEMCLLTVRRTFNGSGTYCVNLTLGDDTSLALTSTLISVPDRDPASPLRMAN
Experimental Protocol: SPR Carterra, Ab immobilized
Experimental: Binding kinetics of human anti-GPNMB IgG1 antibodies of the present disclosure to human, cynomolgus, and mouse GPNMB were evaluated using a Carterra LSA instrument (Carterra, Salt Lake City, UT). […] A HC200M sensor chip (Carterra) was activated using the single channel flow cell with a 7-minute injection of a 1:1:1 mixture of 100 mM MES pH 5.5, 100 mM sulfo-NHS, 400 mM EDC (all reconstituted in MES pH 5.5; 100 μl of each mixed in vial immediately before running assay). […]
Reported kon values for the following binders.
Answer as a quantity: numeral, then unit.

Reference set, count: 4
[[record]]
binder = "anti-GPNMB antibody GPN-25 (antibody, human IgG1, V domains shown, chimeric) VH: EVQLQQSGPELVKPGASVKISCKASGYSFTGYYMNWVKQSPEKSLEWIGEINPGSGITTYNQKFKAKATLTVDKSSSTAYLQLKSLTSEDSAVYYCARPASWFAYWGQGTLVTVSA VL: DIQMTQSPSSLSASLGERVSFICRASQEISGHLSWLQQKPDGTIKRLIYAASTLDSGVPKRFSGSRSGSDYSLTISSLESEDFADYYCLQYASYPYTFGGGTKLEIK"
readout_name = "kon"
reported_measurement = "26000 M⁻¹ s⁻¹"

[[record]]
binder = "anti-GPNMB antibody GPN-08 (antibody, human IgG1, V domains shown, chimeric) VH: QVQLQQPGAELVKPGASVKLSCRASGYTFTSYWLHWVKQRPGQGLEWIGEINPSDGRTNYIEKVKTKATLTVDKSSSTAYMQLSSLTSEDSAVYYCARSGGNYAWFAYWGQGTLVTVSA VL: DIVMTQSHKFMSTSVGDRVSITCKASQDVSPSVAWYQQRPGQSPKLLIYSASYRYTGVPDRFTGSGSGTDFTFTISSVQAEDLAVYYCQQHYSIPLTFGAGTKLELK"
readout_name = "kon"
reported_measurement = "40000 M⁻¹ s⁻¹"

[[record]]
binder = "anti-GPNMB antibody GPN-09 (antibody, human IgG1, V domains shown, chimeric) VH: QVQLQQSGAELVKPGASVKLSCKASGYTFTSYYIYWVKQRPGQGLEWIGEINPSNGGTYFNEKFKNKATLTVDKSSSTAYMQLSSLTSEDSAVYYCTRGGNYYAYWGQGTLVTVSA VL: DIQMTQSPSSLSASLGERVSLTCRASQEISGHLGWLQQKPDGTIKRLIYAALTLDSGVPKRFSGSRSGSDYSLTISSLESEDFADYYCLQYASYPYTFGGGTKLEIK"
readout_name = "kon"
reported_measurement = "12000 M⁻¹ s⁻¹"

[[record]]
binder = "anti-GPNMB antibody GPN-07 (antibody, human IgG1, V domains shown, chimeric) VH: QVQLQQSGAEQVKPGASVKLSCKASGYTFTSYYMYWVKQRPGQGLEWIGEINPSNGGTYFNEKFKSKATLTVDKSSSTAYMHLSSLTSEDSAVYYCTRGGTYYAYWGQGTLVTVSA VL: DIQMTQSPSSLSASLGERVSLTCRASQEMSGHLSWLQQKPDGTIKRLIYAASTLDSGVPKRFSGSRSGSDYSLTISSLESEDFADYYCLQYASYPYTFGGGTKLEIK"
readout_name = "kon"
reported_measurement = "19000 M⁻¹ s⁻¹"


We now examine a further binder.
Task item: What value of kon has been reported for the following binder? anti-GPNMB antibody GPN-11 (antibody, human IgG1, V domains shown, chimeric) VH: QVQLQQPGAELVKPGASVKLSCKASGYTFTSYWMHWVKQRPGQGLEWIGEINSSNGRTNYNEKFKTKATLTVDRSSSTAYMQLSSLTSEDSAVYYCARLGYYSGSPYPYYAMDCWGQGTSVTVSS VL: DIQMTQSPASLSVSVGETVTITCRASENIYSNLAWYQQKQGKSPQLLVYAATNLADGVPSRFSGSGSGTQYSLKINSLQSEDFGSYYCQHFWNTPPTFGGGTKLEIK
Reply: 69000 M⁻¹ s⁻¹
